Target: Casein Kinase 1 (CK1 delta isoform) (Rattus norvegicus, UniProt Q06486)
Construct: a truncation at amino acid 318 of the C-terminal portion of the rat CK1 delta isoform
Sequence (Q06486 1-317): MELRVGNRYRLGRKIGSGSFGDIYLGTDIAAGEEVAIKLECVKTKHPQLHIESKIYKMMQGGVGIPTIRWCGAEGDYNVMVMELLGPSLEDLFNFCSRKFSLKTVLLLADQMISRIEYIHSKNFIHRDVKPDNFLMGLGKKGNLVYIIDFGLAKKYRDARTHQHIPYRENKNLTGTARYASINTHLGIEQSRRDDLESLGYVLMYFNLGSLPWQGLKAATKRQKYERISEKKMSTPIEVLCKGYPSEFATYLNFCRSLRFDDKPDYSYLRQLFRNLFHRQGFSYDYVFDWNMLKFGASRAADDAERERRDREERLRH
Assay: Kinase Selectivity Assay Casein Kinase 1
Conditions: Tables 2a-2k, read-out: Caseine Kinase 1 IC50
Description: Assays to test compound inhibition of other kinases were preformed using methods that measure the amount of phosphorylation of a biotinylated peptide substrate. Biotinylated peptide substrates were selected from the literature as appropriate for the enzyme being evaluated. […] The plate was read on a scintillation counter to determine ^33P-γ-ATP incorporated into the immobilized peptide. […] A maximum and minimum signal for the assay was determined on each plate. […]
parameter: pIC50
Worth noting: pIC50 values are minus log10 of concentrations stated in mol/L.

Exam item: Please look up its pIC50: CCc1ccc(C(=O)n2nc(Nc3ccc(NS(C)(=O)=O)cc3)nc2N)s1
Marked response: 6.72

Exam item: Please give the measured pIC50 for this compound: Cc1ccc(F)c(C(=O)n2nc(Nc3ccc(S(N)(=O)=O)cc3)nc2N)c1Cl
Marked response: 4.78

Exam item: Which measured pIC50 value corresponds to Nc1nc(Nc2ccc(S(=O)(=O)N3CCCCC3)cc2)nn1C(=O)c1cccs1 ?
Marked response: 6.95

Exam item: Please report the recorded pIC50 for CCc1ccc(C(=O)n2nc(Nc3ccc(S(=O)(=O)NC)cc3)nc2N)s1 .
Marked response: 6.73

Exam item: Bench note: what pIC50 did Nc1nc(Nc2ccc(N3CCNC3=O)cc2)nn1C(=O)c1c(F)cccc1F show?
Marked response: 5.00

Exam item: Looking for the measured pIC50 of Cc1ccsc1C(=O)n1nc(Nc2ccc(NS(C)(=O)=O)cc2)nc1N , can you help?
Marked response: 5.93

Exam item: // returns reported pIC50 for input Cc1nc(C)c(C(=O)n2nc(Nc3ccc(S(N)(=O)=O)cc3)nc2N)s1
Marked response: 6.74

Exam item: Can you look up the measured pIC50 of Cc1ccc(F)c(C(=O)n2nc(Nc3ccc(S(=O)(=O)NCCN(C)C)cc3)nc2N)c1F for me?
Marked response: 5.35

Exam item: Entry under review: CNS(=O)(=O)c1ccc(Nc2nc(N)n(C(=O)c3sccc3C)n2)cc1 . Reported pIC50?
Marked response: 6.45

Exam item: Find the recorded pIC50 belonging to Nc1nc(Nc2ccc(S(N)(=O)=O)cc2)nn1C(=O)c1sccc1Cl and report it.
Marked response: 6.19

Exam item: Would you mind telling me what pIC50 value was observed for CCc1ccc(C(=O)n2nc(Nc3ccc(S(N)(=O)=O)cc3)nc2N)s1 ?
Marked response: 6.74

Exam item: Tell me the measured pIC50 of Nc1nc(Nc2ccc(S(N)(=O)=O)cc2)nn1C(=O)c1c(F)cccc1Cl , please.
Marked response: 4.45

Exam item: Reported pIC50 for Nc1nc(Nc2ccc(S(N)(=O)=O)cc2)nn1C(=O)C1CCCCC1 : what is it?
Marked response: 5.39

Exam item: Could you tell me which pIC50 is on file for Nc1nc(Nc2ccc(S(N)(=O)=O)cc2)n(C(=S)Nc2c(F)cccc2F)n1 ?
Marked response: 5.05

Exam item: Look up pIC50: CNS(=O)(=O)c1ccc(Nc2nc(N)n(C(=O)c3sc(C)cc3C)n2)cc1
Marked response: 6.56

Exam item: If you can, please state the reported pIC50 value of Nc1nc(Nc2ccc(S(N)(=O)=O)cc2)nn1C(=O)c1sccc1F .
Marked response: 6.67

Exam item: Please look up its pIC50: CCc1ccc(C(=O)n2nc(Nc3ccc(S(=O)(=O)Nc4ccccn4)cc3)nc2N)s1
Marked response: 6.12

* * *

target: Casein Kinase 2 (alpha and beta subunits) (Homo sapiens); construct: purchased New England Biolabs 6010; host or cells: E. coli; experiment: Kinase Selectivity Assay Casein Kinase 2; assay type: biochemical
parameter: IC50

Exam item: # input molecule: Cc1cc(C)c(C(=O)n2nc(Nc3ccc(S(N)(=O)=O)cc3)nc2N)s1 ; wanted: its IC50
Marked response: > 10 µM

* * *

Consider the following compounds; for each one, report its IC50.
target: Glycogen Synthase Kinase-3 (beta isoform) (Oryctolagus cuniculus); construct: purchased New England Biolabs 6040; host or cells: E. coli; experiment: Kinase Selectivity Assay Glycogen Synthase Kinase-3; assay type: biochemical, rabbit; conditions: Kinase Selectivity, Tables 2a-2k; read-out: GSK-3 IC50
Sequence (G1T8E2 1-432): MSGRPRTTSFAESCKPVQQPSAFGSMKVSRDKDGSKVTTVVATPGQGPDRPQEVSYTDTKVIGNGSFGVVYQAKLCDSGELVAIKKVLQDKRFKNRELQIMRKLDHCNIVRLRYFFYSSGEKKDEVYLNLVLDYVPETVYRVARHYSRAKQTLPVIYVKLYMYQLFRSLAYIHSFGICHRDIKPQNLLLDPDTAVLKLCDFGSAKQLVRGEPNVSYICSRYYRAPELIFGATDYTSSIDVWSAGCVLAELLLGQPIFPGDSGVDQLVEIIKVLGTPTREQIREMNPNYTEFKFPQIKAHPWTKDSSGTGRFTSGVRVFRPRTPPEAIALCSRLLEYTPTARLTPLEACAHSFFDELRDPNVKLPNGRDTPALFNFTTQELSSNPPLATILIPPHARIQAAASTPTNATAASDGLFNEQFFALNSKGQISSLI
Give your result in nM as a bare value.

Exam item: Item Cc1cc(C)c(C(=O)n2nc(Nc3ccc(NS(C)(=O)=O)cc3)nc2N)s1 [Cpd 108] has what recorded IC50?
Marked response: 23

Exam item: Would you kindly share the measured IC50 for Nc1nc(Nc2cccc(Cl)c2)nn1C(=O)c1ccccc1 [Cpd 64] ?
Marked response: 21

Exam item: Given the entry Cc1cc(C)c(C(=O)n2nc(Nc3ccc(S(=O)(=O)NCCN(C)C)cc3)nc2N)s1 [Cpd 107] , report its measured IC50.
Marked response: 15

Exam item: Looking for the measured IC50 of Nc1nc(Nc2ccc(S(N)(=O)=O)cc2)nn1C(=O)C1CCCCC1 [Cpd 39] , can you help?
Marked response: 127

Exam item: // returns reported IC50 for input Nc1nc(Nc2cccc(Cl)c2)nn1C(=O)c1c(F)cccc1F [Cpd 63]
Marked response: 73

Exam item: Any idea what IC50 was measured for Cc1ccc(F)c(C(=O)n2nc(Nc3ccc(N4CCNC4=O)cc3)nc2N)c1F [Cpd 114] ?
Marked response: 431

Exam item: Entry CC(C)(C)c1ccc(C(=O)n2nc(Nc3ccc(S(N)(=O)=O)cc3)nc2N)s1 [Cpd 51] has what IC50?
Marked response: 20

Exam item: Sample Nc1nc(Nc2ccccc2)n(C(=O)c2c(F)cccc2F)n1 [Cpd 124] — what was its IC50?
Marked response: 3000

* * *

target: Casein Kinase 2 (alpha and beta subunits) (Homo sapiens, UniProt P68400); construct: purchased New England Biolabs 6010; host or cells: E. coli; experiment: Kinase Selectivity Assay Casein Kinase 2; format: biochemical; conditions: Kinase Selectivity, Tables 2a-2k; read-out: Caseine Kinase 2 IC50
Sequence (P68400 whole entry): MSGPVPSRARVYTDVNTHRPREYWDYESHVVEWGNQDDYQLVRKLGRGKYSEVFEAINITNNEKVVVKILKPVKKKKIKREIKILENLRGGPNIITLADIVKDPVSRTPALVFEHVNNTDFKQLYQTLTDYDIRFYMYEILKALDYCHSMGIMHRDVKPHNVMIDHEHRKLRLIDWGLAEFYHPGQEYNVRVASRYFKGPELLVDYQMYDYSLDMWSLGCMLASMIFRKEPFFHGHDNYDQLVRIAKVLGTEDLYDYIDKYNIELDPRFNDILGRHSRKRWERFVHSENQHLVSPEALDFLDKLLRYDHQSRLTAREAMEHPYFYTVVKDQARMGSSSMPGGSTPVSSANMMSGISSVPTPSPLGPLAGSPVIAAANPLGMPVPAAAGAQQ
Sequence (P67870 whole entry partner): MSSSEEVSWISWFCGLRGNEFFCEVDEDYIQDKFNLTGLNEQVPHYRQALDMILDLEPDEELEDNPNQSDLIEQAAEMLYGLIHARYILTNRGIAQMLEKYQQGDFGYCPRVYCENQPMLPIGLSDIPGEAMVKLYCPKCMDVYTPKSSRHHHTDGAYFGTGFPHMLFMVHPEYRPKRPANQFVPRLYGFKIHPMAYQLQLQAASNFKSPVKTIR
parameter: IC50

Exam item: Look up IC50: Cc1ccsc1C(=O)n1nc(Nc2ccc(S(=O)(=O)NCCN(C)C)cc2)nc1N
Marked response: > 100 µM

Exam item: Value lookup for IC50; key = CCc1ccc(C(=O)n2nc(Nc3ccc(S(N)(=O)=O)cc3)nc2N)s1
Marked response: 0.527 µM

Exam item: // query IC50 value for entry Cc1ccsc1C(=O)n1nc(Nc2ccc(N3CCCS3(=O)=O)cc2)nc1N
Marked response: > 100 µM

Exam item: Which IC50 is listed for Cc1ccsc1C(=O)n1nc(Nc2ccc(-n3cncn3)cc2)nc1N ?
Marked response: > 100 µM

Exam item: IC50 for Cc1ccsc1C(=O)n1nc(Nc2ccc(N3CCNC3=O)cc2)nc1N ?
Marked response: > 100 µM

Exam item: I would be grateful if you could share the reported IC50 for CC(C)(C)c1ccc(C(=O)n2nc(Nc3ccc(S(N)(=O)=O)cc3)nc2N)s1 .
Marked response: 1.78 µM

Exam item: Field request: IC50 | item: Nc1nc(Nc2ccc(N3CCNC3=O)cc2)nn1C(=O)c1c(F)cccc1F
Marked response: > 100 µM

Exam item: Dear colleague, I am looking for the recorded IC50 of the following molecule: Cc1ccsc1C(=O)n1nc(Nc2ccc(S(N)(=O)=O)cc2)nc1N
Marked response: > 100 µM

Exam item: Given the molecule Nc1nc(Nc2ccc(S(N)(=O)=O)cc2)nn1C(=O)c1sccc1Cl , what is its reported IC50?
Marked response: 2.65 µM

* * *

Task for the reader: assign each of the following compounds its reported log10 IC50.
target: CDK1:Cyclin-B (Homo sapiens); construct: purchased New England Biolabs 6020; host or cells: insect cells; assay: CDK1 Screening Assay; format: biochemical; conditions: Table 1; read-out: CDK1 IC50
Sequence (P06493 whole entry): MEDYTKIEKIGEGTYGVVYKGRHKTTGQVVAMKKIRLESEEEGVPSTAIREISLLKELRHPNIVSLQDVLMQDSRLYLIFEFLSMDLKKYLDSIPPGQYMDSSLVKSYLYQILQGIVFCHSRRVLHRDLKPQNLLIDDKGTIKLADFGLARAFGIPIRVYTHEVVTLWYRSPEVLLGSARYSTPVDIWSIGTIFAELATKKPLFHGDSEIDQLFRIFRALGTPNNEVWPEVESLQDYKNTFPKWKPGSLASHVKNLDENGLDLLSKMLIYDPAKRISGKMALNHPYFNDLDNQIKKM
Sequence (P14635 whole entry partner): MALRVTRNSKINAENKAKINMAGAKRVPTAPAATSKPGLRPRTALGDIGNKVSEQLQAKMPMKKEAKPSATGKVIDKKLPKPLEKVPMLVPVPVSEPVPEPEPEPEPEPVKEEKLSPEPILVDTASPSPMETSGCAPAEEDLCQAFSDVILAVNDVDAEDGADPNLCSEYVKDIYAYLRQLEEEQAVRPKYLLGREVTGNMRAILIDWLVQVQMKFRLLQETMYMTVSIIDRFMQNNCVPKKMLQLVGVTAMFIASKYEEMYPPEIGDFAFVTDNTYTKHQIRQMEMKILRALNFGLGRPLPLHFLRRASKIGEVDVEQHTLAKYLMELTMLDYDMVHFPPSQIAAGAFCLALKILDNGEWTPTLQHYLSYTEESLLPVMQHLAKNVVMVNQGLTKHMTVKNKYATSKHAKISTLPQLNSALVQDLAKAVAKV
Hey, these are logged values: log10 of IC50, nM being the unit before logging.

Exam item: What does the data say about its log10 IC50? Entry: Cc1ccc(F)c(C(=O)n2nc(Nc3ccc(S(N)(=O)=O)cc3)nc2N)c1F
Marked response: 0.51

Exam item: Would you kindly share the measured log10 IC50 for Nc1nc(Nc2ccc(S(N)(=O)=O)cc2)nn1C(=O)c1ccncc1 ?
Marked response: 4.85

Exam item: # lookup: log10 IC50 of Nc1nc(Nc2ccc(S(N)(=O)=O)cc2)nn1C(=O)c1cc2ccccc2s1
Marked response: 1.48

Exam item: Which log10 IC50 is reported for this compound? CS(=O)(=O)Nc1ccc(Nc2nc(N)n(C(=O)c3c(F)cccc3F)n2)cc1
Marked response: 2.18

Exam item: log10 IC50 for CC(O)c1ccc(F)c(C(=O)n2nc(Nc3ccc(S(N)(=O)=O)cc3)nc2N)c1F (centres unmarked) ?
Marked response: 1.15

* * *

tested on: A375 malignant melanoma; test: Inhibition of Cell Proliferation (14C-thymidine incorporation), A375; format: cell-based; settings: Homo sapiens, A-375, A375 cell line
Hi there, I'd appreciate the recorded IC50 for every entry that follows.
Enter your answer as a number in nM; do not include the unit.

Exam item: For the molecule Nc1nc(Nc2ccc(S(N)(=O)=O)cc2)nn1C(=O)c1cccs1 , what IC50 is on record?
Marked response: 26500

Exam item: Record request: IC50 value, item Nc1nc(Nc2ccc(S(=O)(=O)N3CCCCC3)cc2)nn1C(=O)c1cccs1
Marked response: 424

Exam item: Quick one: IC50 for Nc1nc(Nc2ccc(S(N)(=O)=O)cc2)nn1C(=O)c1ccsc1 ?
Marked response: 8240

Exam item: Entry CC(O)c1ccc(F)c(C(=O)n2nc(Nc3ccc(S(N)(=O)=O)cc3)nc2N)c1F (stereo not drawn) : reported IC50 = ?
Marked response: 981

Exam item: Param item = Cc1ccc(F)c(C(=O)n2nc(Nc3ccc(S(=O)(=O)NCCN(C)C)cc3)nc2N)c1F ; retrieve measured IC50.
Marked response: 652

Exam item: IC50 for CC(C)(C)c1ccc(C(=O)n2nc(Nc3ccc(S(N)(=O)=O)cc3)nc2N)s1 ?
Marked response: 333

Exam item: Query: IC50; subject: Nc1nc(Nc2ccc(S(=O)(=O)Nc3ccccn3)cc2)nn1C(=O)c1c(F)cccc1F
Marked response: 1620

Exam item: # lookup: IC50 of Nc1nc(Nc2ccc(N3CCCS3(=O)=O)cc2)nn1C(=O)c1c(F)cccc1F
Marked response: 2190

Exam item: Entry CNS(=O)(=O)c1ccc(Nc2nc(N)n(C(=O)c3c(F)ccc(C)c3F)n2)cc1 has what IC50?
Marked response: 1770
